target: Tyrosine-protein phosphatase non-receptor type 1 (Homo sapiens); assay: Inhibition of recombinant PTP1B (unknown origin) using pNPP as substrate by spectrophotometric method
Sequence (P18031 whole entry): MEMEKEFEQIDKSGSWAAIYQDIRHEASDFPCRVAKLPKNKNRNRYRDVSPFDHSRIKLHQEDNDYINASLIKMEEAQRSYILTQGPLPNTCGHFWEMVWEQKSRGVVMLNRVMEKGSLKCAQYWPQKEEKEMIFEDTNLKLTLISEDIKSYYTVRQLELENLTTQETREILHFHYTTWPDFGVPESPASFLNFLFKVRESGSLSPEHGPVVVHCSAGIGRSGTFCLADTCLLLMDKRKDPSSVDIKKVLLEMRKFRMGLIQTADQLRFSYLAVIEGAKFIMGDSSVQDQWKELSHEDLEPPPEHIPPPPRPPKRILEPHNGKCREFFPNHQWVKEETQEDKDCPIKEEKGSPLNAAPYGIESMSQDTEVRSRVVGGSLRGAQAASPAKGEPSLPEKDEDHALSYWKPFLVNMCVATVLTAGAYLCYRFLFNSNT
Listing of recorded IC50 by entry.

Oc1ccc(-c2ccccc2)cc1C(O)(C(F)(F)F)C(F)(F)F : > 500 µM
O=C(COc1ccc2cc(C(O)(C(F)(F)F)C(F)(F)F)c(O)cc2c1)Nc1ccc(-c2ccccc2)cc1 : > 20 µM

Q) Recorded IC50 for O=C(COc1ccc2cc(C(O)(C(F)(F)F)C(F)(F)F)c(O)cc2c1)Nc1cccc2ccccc12 , please?
A) > 20 µM

Q) Entry to check: O=C(COc1ccc2cc(C(O)(C(F)(F)F)C(F)(F)F)c(O)cc2c1)Nc1ccc(N2CCOCC2)cc1
A) > 20 µM

Q) Let us now turn to CC(C)c1ccc(NC(=O)COc2ccc3cc(C(O)(C(F)(F)F)C(F)(F)F)c(O)cc3c2)cc1
A) 17.2 µM

Q) Proceed to OC(c1ccccc1)(C(F)(F)F)C(F)(F)F
A) > 500 µM

Q) Param item: O=C(COc1ccc2cc(C(O)(C(F)(F)F)C(F)(F)F)c(O)cc2c1)NCCc1ccc(Cl)cc1Cl
A) 12.6 µM

Q) Entry Oc1c(-c2ccccc2)cccc1C(O)(C(F)(F)F)C(F)(F)F please
A) 422 µM

---

Each entry below lists one item and its recorded IC50 value.
Biological target: Receptor-type tyrosine-protein phosphatase C (Homo sapiens)
Sequence (P08575 whole entry): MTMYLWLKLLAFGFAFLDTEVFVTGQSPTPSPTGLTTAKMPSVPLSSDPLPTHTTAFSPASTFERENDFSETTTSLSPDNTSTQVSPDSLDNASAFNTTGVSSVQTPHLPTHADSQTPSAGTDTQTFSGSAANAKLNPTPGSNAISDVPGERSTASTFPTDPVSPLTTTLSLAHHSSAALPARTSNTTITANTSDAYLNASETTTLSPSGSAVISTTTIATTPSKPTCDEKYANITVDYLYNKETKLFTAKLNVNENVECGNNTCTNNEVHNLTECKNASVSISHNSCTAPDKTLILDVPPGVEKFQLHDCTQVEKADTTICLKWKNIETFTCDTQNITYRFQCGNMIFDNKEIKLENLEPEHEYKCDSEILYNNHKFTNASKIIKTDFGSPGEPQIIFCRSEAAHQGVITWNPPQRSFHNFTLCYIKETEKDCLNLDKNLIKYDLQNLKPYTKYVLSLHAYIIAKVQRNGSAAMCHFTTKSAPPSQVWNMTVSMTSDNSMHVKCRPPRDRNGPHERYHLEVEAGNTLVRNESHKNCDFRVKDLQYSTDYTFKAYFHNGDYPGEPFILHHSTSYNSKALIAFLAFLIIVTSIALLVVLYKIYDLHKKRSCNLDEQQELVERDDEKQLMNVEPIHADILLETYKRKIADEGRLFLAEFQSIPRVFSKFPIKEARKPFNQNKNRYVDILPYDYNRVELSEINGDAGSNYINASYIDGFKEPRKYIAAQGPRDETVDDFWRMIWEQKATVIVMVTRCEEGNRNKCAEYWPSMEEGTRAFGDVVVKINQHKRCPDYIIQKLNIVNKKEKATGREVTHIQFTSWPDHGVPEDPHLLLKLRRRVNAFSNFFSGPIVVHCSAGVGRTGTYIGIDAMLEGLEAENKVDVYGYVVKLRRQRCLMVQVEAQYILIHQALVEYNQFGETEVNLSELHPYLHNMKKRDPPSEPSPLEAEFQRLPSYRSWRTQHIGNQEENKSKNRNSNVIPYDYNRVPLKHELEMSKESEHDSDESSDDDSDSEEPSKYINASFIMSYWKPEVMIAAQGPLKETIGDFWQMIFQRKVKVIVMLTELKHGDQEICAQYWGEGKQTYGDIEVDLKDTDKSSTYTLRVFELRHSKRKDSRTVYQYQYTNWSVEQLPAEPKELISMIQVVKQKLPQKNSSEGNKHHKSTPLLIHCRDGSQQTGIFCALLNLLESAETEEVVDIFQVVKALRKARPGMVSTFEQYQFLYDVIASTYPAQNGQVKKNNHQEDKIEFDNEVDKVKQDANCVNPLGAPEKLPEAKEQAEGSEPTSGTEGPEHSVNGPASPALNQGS
Test: Inhibition of recombinant CD45 (unknown origin) using pNPP as substrate by spectrophotometric method
Please state the figure in µM; there is no need to write the unit.

For orientation, consider the following solved cases.
O=C(COc1ccc2cc(C(O)(C(F)(F)F)C(F)(F)F)c(O)cc2c1)N(c1ccccc1)c1ccccc1 : 14.9
O=C(COc1ccc2cc(C(O)(C(F)(F)F)C(F)(F)F)c(O)cc2c1)N1c2ccccc2Sc2ccccc21 : 2.8
O=C(COc1ccc2cc(C(O)(C(F)(F)F)C(F)(F)F)c(O)cc2c1)NCCc1ccc(Cl)cc1Cl : 5.2
Oc1c(-c2ccccc2)cccc1C(O)(C(F)(F)F)C(F)(F)F : 157
O=C(COc1ccc2cc(C(O)(C(F)(F)F)C(F)(F)F)c(O)cc2c1)Nc1ccc(-c2ccccc2)cc1 : 3.4

Q) IC50 for O=C(COc1ccc2cc(C(O)(C(F)(F)F)C(F)(F)F)c(O)cc2c1)NC1c2ccccc2-c2ccccc21 ?
A) 6.6

Q) Query O=C(COc1ccc2cc(C(O)(C(F)(F)F)C(F)(F)F)c(O)cc2c1)Nc1nc2ccccc2s1 next
A) 10.9

Q) Now try O=C(COc1ccc2cc(C(O)(C(F)(F)F)C(F)(F)F)c(O)cc2c1)NC12CC3CC(CC(C3)C1)C2 .
A) 7.6

Q) Now give it for O=C(COc1ccc2cc(C(O)(C(F)(F)F)C(F)(F)F)c(O)cc2c1)Nc1cccc2ccccc12 too.
A) 29.1

Q) Further, for Cc1ccc(S(=O)(=O)NNC(=O)COc2ccc3cc(C(O)(C(F)(F)F)C(F)(F)F)c(O)cc3c2)cc1 ?
A) 16.1

Ref: ChEMBL document CHEMBL3861950
